# Test system: K4 kissing-loop RNA reporter
# protocol-description: apparent KD of K4 kissing-loop reporter; higher = weaker reporter binding
# condition-set: Eterna round: R107; input ligand: theophylline 20 uM
# apparent KD of K4 kissing-loop reporter listing for each entry below
Number in nM, nothing else.

Record excerpt, results attached:
sequence-string	apparent KD of K4 kissing-loop reporter / nM
AAAAUAAACCAGUGAUGUUGGUGUCUAGAUACCAGCGAUAAUAAUCGCCCUUGGCAGCUACGGACGUACAAAAUAAGUACGUCCU [MatMod 10 - Jieux - Same State - Theophylline A]	485
GUACCUUGGAAACAAGGACCGCUAACCGAAGGAGCGCGUGAAAACGCAGGUAGGUCGCGGUAGCGGAGUGAUGUUCCGCGAGAGG [Excluson Arginine A GF 14]	268
AACGCUCAAUAGAGAGUGAUGUUCUCUAUACGAGGACCGGUACGGCCGCCACUCGAAUGUAUAGCGAAACGCUAUACACAGUGGU [Tryp A SS t2]	146
CAUUCGAAAUGCAGUGAUGUUGCAACUGAUACCAGUAUCGAAAGAUACCCUUGGCAGCGGAAAACCGCUACGUUUUUUUUGAAUG [Ex Theophylline A K4 24]	357

Recorded apparent KD of K4 kissing-loop reporter for AAAACCAAAAGCGAUACCAGCGCGGAGUGAUGUUCCGAGGAUCGGAGUGAUGUUCCGAAGCGCCCUUGGCAGCGCAAAAGCGCAA [Exclusion Theophylline B GF 7] with K4 kissing-loop RNA reporter, please?
196

What measured apparent KD of K4 kissing-loop reporter is associated with AAAAUAAUCCAGUGAUGUUGGUAUCCAGAUACCAGCCACGAAAGUGGCCCUUGGCAGCUGUGGACGUACAAAAUAAGUACGUCCU [#OpenEnded 8 #StaticStem #K4Early] on K4 kissing-loop RNA reporter?
790

Lab note: need apparent KD of K4 kissing-loop reporter with K4 kissing-loop RNA reporter for entry UUUUAAAUGUCUGAUACCAGAGAAAAUUUAUGUAGUGAUGUUAUAUACAAAUUAAAUAAGCUCCCUUGGCAGCAGUAUUAAUUUU [AstrosExc-TheB#9] , please look it up.
623

Give K4 kissing-loop RNA reporter apparent KD of K4 kissing-loop reporter for AAAAUAAAUAGCAGUCACGGAGUGAUGUUCCGAGGACCGGUACGGCCGCCACUCGACCAUCAUAAGAUGGAAUGGCGAGACUGCA [#SwitchBubble 21 #K4Early]
138

Find the measured apparent KD of K4 kissing-loop reporter: item UAUGUACACUGGUAGUGGUACAUCGAGGAAGGAGCGUGCGCAGGCACAGGUAGGUCGCCUCAGCGCACGAGUGAUGUUCGUGGGC [Ceaqu] , target or system K4 kissing-loop RNA reporter.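 Note: bound reporter read as fluorescence of individual clusters on recovered sequencing chips by microscopy, with normalized cluster intensities fitted with a binding model.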
262
